target-or-test-system: ABCG2 (Homo sapiens, UniProt Q9UNQ0)
Sequence (Q9UNQ0 whole entry): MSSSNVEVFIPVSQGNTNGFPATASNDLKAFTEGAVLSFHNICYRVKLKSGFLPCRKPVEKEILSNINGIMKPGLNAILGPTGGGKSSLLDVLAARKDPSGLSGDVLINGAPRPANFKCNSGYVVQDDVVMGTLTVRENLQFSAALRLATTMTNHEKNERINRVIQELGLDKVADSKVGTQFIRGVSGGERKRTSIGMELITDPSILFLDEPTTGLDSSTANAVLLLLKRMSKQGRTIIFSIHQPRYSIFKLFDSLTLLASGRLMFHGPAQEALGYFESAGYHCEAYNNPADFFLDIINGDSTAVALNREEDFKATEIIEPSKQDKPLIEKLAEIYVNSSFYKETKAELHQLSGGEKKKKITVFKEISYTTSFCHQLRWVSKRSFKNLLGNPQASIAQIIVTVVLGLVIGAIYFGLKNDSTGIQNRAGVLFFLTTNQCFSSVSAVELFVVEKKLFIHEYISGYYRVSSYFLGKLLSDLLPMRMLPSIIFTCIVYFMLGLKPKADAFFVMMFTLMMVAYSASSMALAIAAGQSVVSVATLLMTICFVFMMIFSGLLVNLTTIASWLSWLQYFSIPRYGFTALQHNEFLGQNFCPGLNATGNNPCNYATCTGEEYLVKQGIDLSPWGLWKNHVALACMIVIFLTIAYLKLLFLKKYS
assay-info: Bioluminescence imaging (BLI) assay in HEK293/ABCG2/fLuc cells
measurement-conditions: human, 40 min, 17 μM
Where a name gives a salt, the structure may show the parent alone.
observed-property: fold (BLI enhancement), additional previously known ABCG2 inhibitors (fold)

- O=c1c(-c2ccc(O)cc2)coc2cc(O)cc(O)c12: 1.2
- C[C@]12CC[C@@H]3c4ccc(O)cc4CC[C@H]3[C@@H]1CCC2=O: 4.1
- COCCOC(=O)C1=C(C)NC(C)=C(C(=O)OC(C)C)C1c1cccc([N+](=O)[O-])c1 (stereo not shown): 2.8
- CC(C)(C)NC(=O)[C@@H]1C[C@@H]2CCCC[C@@H]2CN1C[C@@H](O)[C@H](Cc1ccccc1)NC(=O)[C@H](CC(N)=O)NC(=O)c1ccc2ccccc2n1 [saquinavir mesylate]: 4.9
- O=c1cc(-c2ccccc2)oc2cc(O)c(O)cc12 [6,7-dihydroxyflavone]: 2.7
- C[C@]12CC[C@@H]3c4ccc(O)cc4CC[C@H]3[C@@H]1CC[C@@H]2O: 3.6
- O=c1cc(-c2ccccc2)oc2cc(O)cc(O)c12: 2.3
- O=C1C[C@@H](c2ccc(O)cc2)Oc2cc(O)cc(O)c21: 1.9
- OCCN(CCO)c1nc(N2CCCCC2)c2nc(N(CCO)CCO)nc(N3CCCCC3)c2n1: 7.1
- COC(=O)C1=C(C)NC(C)=C(C(=O)OCCN(C)Cc2ccccc2)C1c1cccc([N+](=O)[O-])c1 (stereo not shown): 2.9

# credit: patent US20150148256A1
